target: UniProt:Q965D5; assay: Inhibition of Plasmodium falciparum ENR by fluorescence quenching in presence of ECG
readout.label: Ki

Reported Ki for Oc1cc(Cl)ccc1Oc1ccc(Cl)cc1Cl : what is it?
28.3 nM

====

target: Enoyl-acyl-carrier protein reductase (Plasmodium falciparum); assay: Inhibition of Plasmodium falciparum ENR in presence of triclosan
Below: a set of entries, each annotated with reported Ki.
Reply with just the number (in nM).

Illustrative cases are given below, each with its answer.
{"columns": ["compound", "Ki / nM"],
 "data": [
  ["O=c1c(O)c(-c2ccc(O)c(O)c2)oc2cc(O)cc(O)c12", 22],
  ["O=C(O[C@@H]1Cc2c(O)cc(O)cc2O[C@@H]1c1cc(O)c(O)c(O)c1)c1cc(O)c(O)c(O)c1 [EPIGALOCATECHIN GALLATE]", 8],
  ["O=C(/C=C/c1ccc(O)c(O)c1)c1ccc(O)cc1O", 14],
  ["O=C(O[C@@H]1Cc2c(O)cc(O)cc2O[C@@H]1c1ccc(O)c(O)c1)c1cc(O)c(O)c(O)c1 [EPICATECHIN GALLATE]", 16]
]}

Now for another entry.
# returns recorded Ki (system: Enoyl-acyl-carrier protein reductase (Plasmodium falciparum)) for Oc1cc(O)c2c(c1)O[C@H](c1cc(O)c(O)c(O)c1)[C@H](O)C2 [EPIGALLOCATECHIN]
17.6

====

Target: Enoyl-acyl-carrier protein reductase (Plasmodium falciparum)
Sequence (Q965D5 whole entry): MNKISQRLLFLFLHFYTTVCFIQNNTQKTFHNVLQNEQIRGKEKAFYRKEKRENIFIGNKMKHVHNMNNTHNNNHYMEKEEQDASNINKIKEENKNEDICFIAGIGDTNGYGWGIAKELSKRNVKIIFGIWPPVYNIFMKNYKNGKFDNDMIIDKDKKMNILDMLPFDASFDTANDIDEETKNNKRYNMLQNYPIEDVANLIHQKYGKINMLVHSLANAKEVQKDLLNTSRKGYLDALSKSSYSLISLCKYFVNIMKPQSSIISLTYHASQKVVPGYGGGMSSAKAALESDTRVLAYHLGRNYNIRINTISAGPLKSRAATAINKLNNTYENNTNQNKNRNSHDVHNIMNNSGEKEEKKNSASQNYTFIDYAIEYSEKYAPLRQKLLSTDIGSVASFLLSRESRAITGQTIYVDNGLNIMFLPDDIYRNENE
Assay: Inhibition of Plasmodium falciparum ENR by fluorescence quenching in presence of quercetin
readout.label: Ki (nM)
Reply with just the number (in nM).

Reported Ki for Oc1cc(Cl)ccc1Oc1ccc(Cl)cc1Cl : what is it?
30.5
